Where these numbers come from: ChEMBL document CHEMBL1148566

target: Tissue alpha-L-fucosidase (Bos taurus) (UniProt Q2KIM0); test: Inhibitory activity against alpha-L-fucosidase in bovine brain at 1 mM
Sequence (Q2KIM0 whole entry): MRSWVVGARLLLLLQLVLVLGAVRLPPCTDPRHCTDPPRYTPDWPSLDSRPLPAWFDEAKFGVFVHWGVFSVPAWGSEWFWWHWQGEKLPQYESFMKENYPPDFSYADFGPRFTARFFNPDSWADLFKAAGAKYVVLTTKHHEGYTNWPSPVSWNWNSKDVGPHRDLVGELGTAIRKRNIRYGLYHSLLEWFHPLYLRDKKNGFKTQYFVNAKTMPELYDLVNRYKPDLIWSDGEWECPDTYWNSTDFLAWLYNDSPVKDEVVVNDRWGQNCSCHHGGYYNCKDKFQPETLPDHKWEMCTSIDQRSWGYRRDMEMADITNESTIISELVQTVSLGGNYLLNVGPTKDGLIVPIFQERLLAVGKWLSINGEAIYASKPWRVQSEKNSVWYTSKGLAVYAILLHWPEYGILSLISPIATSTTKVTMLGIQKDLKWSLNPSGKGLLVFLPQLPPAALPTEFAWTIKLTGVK
Calls of active or inactive are those of the source. No cut-off for these calls is given here.

Compound	Activity
CC1(O)C(=O)N2CCCC2C1O (centres undefined)	inactive
C[C@@H]1CNC(=O)C(C)(O)C1O (some centres undefined)	inactive
CC(C)[C@@H]1NC(=O)C(C)(O)C1O (some centres undefined)	inactive
C[C@@H]1NC(=O)C(C)(O)C1O (some centres undefined)	inactive

----------
test system: Saccharomyces cerevisiae; experiment: Inhibitory activity against alpha-glucosidase in yeast; details: concentration not given here
Assay Readout: inhibition (%)

Molecule	Experimental Target	Assay Readout	Measured Result
C[C@@H]1CNC(=O)C(C)(O)C1O (some centres undefined)	Saccharomyces cerevisiae	inhibition	46
CC(C)[C@@H]1NC(=O)C(C)(O)C1O (some centres undefined)	Saccharomyces cerevisiae	inhibition	51
CC1(O)C(=O)N2CCCC2C1O (centres undefined)	Saccharomyces cerevisiae	inhibition	45
C[C@@H]1NC(=O)C(C)(O)C1O (some centres undefined)	Saccharomyces cerevisiae	inhibition	48
